ASSAY SYSTEM: β-receptors (Canis lupus familiaris, UniProt P79148)
Construct: tachycardia in conscious dogs; from tissue; host or cells: heart in the living conscious dog (in vivo, i.v. dosing)
Sequence (P79148 whole entry): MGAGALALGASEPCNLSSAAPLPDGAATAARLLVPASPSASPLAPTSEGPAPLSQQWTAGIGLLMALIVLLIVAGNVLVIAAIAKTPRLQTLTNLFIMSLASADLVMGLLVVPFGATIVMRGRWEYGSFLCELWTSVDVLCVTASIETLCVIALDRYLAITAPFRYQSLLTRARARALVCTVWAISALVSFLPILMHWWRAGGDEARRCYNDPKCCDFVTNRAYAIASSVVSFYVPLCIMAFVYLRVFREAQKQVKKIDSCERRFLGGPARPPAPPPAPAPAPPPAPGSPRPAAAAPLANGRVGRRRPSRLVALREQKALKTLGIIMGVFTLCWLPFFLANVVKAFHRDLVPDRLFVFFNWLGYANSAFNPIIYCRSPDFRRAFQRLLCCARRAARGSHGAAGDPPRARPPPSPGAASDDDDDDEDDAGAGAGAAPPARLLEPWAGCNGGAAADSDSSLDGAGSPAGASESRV
PROTOCOL SUMMARY: antagonizing isopropylnoradrenaline induced tachycardia in conscious dogs (i.v.)
Type: in vivo
RUN CONDITIONS: dog, iv, read-out: ED50 in antagonizing isopropylnoradrenaline induced tachycardia
Simple rule here: ED50 less than 0.02 mg/kg is yes (1), otherwise no (0).

Observe how each entry below is paired with its result.
Ask: Does the reported ED50 of COc1cc(OCC(O)CNC(C)(C)C)c2c(c1)C(=O)OC(C)(C)C2.O=C(O)C(=O)O (stereo not shown) [Example 15] stay below 0.02 mg/kg?
Reply: yes (1)

Ask: Does the reported ED50 of CC(C)(C)NCC(O)COc1cccc2c1COC2=O.Cl (stereo not shown) [Example 8] stay below 0.02 mg/kg?
Reply: no (0)

Ask: Does the reported ED50 of CC(C)(C)NCC(O)COc1cccc2c1C(=O)OCC2.Cl (stereo not shown) [Example 12] stay below 0.02 mg/kg?
Reply: yes (1)

Ask: Does the reported ED50 of CC(C)CNCC(O)COc1cccc2c1C(=O)OC2.Cl (stereo not shown) [Example 10] stay below 0.02 mg/kg?
Reply: no (0)

Ask: Does the reported ED50 of CC(C)(C)NCC(O)COc1ccc2c(c1)C(=O)OCC2.Cl (stereo not shown) [Example 7] stay below 0.02 mg/kg?
Reply: no (0)

Ask: Does the reported ED50 of CCC1Cc2c(OCC(O)CNC(C)(C)C)cc(OC)cc2C(=O)O1.Cl (stereo not shown) [Example 14] stay below 0.02 mg/kg?
Reply: no (0)

Ask: Does the reported ED50 of COc1cc(OCC(O)CNC(C)(C)C)c2c(c1)C(=O)OC(C)C2.Cl (stereo not shown) [Example 13] stay below 0.02 mg/kg?
Reply: yes (1)

Ask: Does the reported ED50 of CC(C)(C)NCC(O)COc1ccc2c(c1)C(=O)OC2.Cl (stereo not shown) [Example 9] stay below 0.02 mg/kg?
Reply: no (0)

***
Ask: Does the reported ED50 of CC(C)NCC(O)COc1ccc2c(c1)C(=O)OCC2.Cl (stereo not shown) [Example 6] stay below 0.02 mg/kg?
Reply: no (0)

Ask: Does the reported ED50 of CC(C)NCC(O)COc1cccc2c1C(=O)OC2.Cl (stereo not shown) [Example 1] stay below 0.02 mg/kg?
Reply: yes (1)
